# target system: LNX1_2, Q8TBB1
# Sequence (Q8TBB1 371-470): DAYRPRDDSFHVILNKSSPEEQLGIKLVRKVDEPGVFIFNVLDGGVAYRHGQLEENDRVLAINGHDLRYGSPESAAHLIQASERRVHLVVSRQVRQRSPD
# assay comment: holdup assay
# Set-up: key: below the threshold = too weak to quantify, mostly under pKd 3.1 to 4
# experimental context: plain residues with an end cap or a label only (N-terminal biotin on a linker: ttds)
measured parameter: pKd

Before answering, review these 5 worked examples.
- SVWLRKETRV [CYSLTR2, Q9NS75]: 3.4
- TVASEKESVM [SLC1A5, Q15758]: below the threshold
- IDNDTESTAL [ARHGAP17, Q68EM7]: below the threshold
- RSLEEEESQL [GRASP, Q7Z6J2]: 3.56
- SRPQRTQTQV [HPV67-E6, A4U7F2]: below the threshold

For this binder ( QSARYRDTEL [TJP2, Q9UDY2] ), measured pKd is 3.52

For this binder ( IYVPEAQTRL [DLGAP4, Q9Y2H0] ), measured pKd is below the threshold

For this binder ( ERKLSSESQV [LRP4, O75096] ), measured pKd is below the threshold

For this binder ( PKTPPTDTSV [KIR3DL3, Q8N743] ), measured pKd is below the threshold

For this binder ( STLTIFETAL [ABCC4, O15439] ), measured pKd is below the threshold

For this binder ( GQDSREETQL [KCNT2, Q6UVM3] ), measured pKd is below the threshold

For this binder ( VLRLQSETSV [VANGL1, Q8TAA9] ), measured pKd is below the threshold

For this binder ( SSRTRRETQL [HPV16-E6, P03126] ), measured pKd is 3.47

Values were extracted from paper PMC9482650.
